Entries and their EC50 values follow.
TEST NAME: Inhibition of HCV genotype 1a NS5B RNA dependent RNA polymerase C316Y mutant transfected in human HuH7 Lunet replicon cells assessed as reduction in viral replication after 3 days by steady-glo luciferase reporter gene assay

COMPOUND: CNC(=O)c1c(-c2ccc(F)cc2)oc2cc(N(c3ccc(B(O)O)c(Cl)c3)S(C)(=O)=O)c(C3CC3)cc12
QUAL: =
EC50 / nM: 11
//
COMPOUND: CNC(=O)c1c(-c2ccc(F)cc2)oc2cc(-c3ncoc3-c3ccc(B(O)O)c(F)c3)c(C3CC3)cc12
QUAL: =
EC50 / nM: 30
//
COMPOUND: CNC(=O)c1c(-c2ccc(F)cc2)oc2cc(N3C(=O)OC[C@H]3c3ccc(B(O)O)c(F)c3)c(C3CC3)cc12
QUAL: >
EC50 / nM: 5000
//
COMPOUND: CNC(=O)c1c(-c2ccc(F)cc2)oc2cc(N(C3CCc4cc(B(O)O)ccc43)S(C)(=O)=O)c(C3CC3)cc12 (stereo not drawn)
QUAL: =
EC50 / nM: 4400
//
COMPOUND: CNC(=O)c1c(-c2ccc(F)cc2)oc2cc(-n3ccnc3-c3ccc(B(O)O)c(F)c3)c(C3CC3)cc12
QUAL: =
EC50 / nM: 2000
//
COMPOUND: CNC(=O)c1c(-c2ccc(F)cc2)oc2cc(N(c3ccc(B(O)O)cc3)S(C)(=O)=O)c(C3CC3)cc12
QUAL: =
EC50 / nM: 290
//
COMPOUND: CNC(=O)c1c(-c2ccc(F)cc2)oc2cc(-n3nc(C)nc3-c3ccc(B(O)O)c(F)c3)c(C3CC3)cc12
QUAL: =
EC50 / nM: 630
//
COMPOUND: CNC(=O)c1c(-c2ccc(F)cc2)oc2cc(N3C(=O)OC[C@@H]3c3cccc(F)c3)c(C3CC3)cc12
QUAL: >
EC50 / nM: 5000

----------
Entries and their EC50 values follow.
TEST NAME: Inhibition of HCV genotype 1a wild-type NS5B RNA dependent RNA polymerase transfected in human HuH7 Lunet replicon cells assessed as reduction in viral replication after 3 days by steady-glo luciferase reporter gene assay

RECORD SMILES: CNC(=O)c1c(-c2ccc(F)cc2)oc2cc(N(c3ccc(B(O)O)c(F)c3)S(C)(=O)=O)c(C3CC3)cc12
EC50, nM: 1
--
RECORD SMILES: CNC(=O)c1c(-c2ccc(F)cc2)oc2cc(-n3ncnc3-c3ccc(B(O)O)c(F)c3)c(C3CC3)cc12
EC50, nM: 1.1
--
RECORD SMILES: CNC(=O)c1c(-c2ccc(F)cc2)oc2cc(-n3nccc3-c3ccc(B(O)O)c(F)c3)c(C3CC3)cc12
EC50, nM: 2.3
--
RECORD SMILES: CNC(=O)c1c(-c2ccc(F)cc2)oc2cc(N3C(=O)OC[C@H]3c3ccc(B(O)O)c(F)c3)c(C3CC3)cc12
EC50, nM: 140
--
RECORD SMILES: CNC(=O)c1c(-c2ccc(F)cc2)oc2cc(N(c3cc(Cl)c4c(c3)COB4O)S(C)(=O)=O)c(C3CC3)cc12
EC50, nM: 1.3
--
RECORD SMILES: CNC(=O)c1c(-c2ccc(F)cc2)oc2cc(N(c3ccc(B(O)O)cc3)S(C)(=O)=O)c(C3CC3)cc12
EC50, nM: 0.9
--
RECORD SMILES: CNC(=O)c1c(-c2ccc(F)cc2)oc2cc(N(c3ccc(B(O)O)c(C(F)(F)F)c3)S(C)(=O)=O)c(C3CC3)cc12
EC50, nM: 1.1
--
RECORD SMILES: CNC(=O)c1c(-c2ccc(F)cc2)oc2cc(N3C(=O)OC[C@@H]3c3ccc(B(O)O)c(F)c3)c(C3CC3)cc12
EC50, nM: 2.6
